Cited source: ChEMBL document CHEMBL3046258

# Test system: Aspergillus niger
# test: Antifungal activity against Aspergillus niger MTCC 1344 assessed as inhibition of growth zone at 40 ug/ml after 2 to 3 days by cup-plate method relative to clotrimazole
# Format: functional
inhibition at 40 µg/mL below 50% gives NOT MET; inhibition at 40 µg/mL at or above it gives MET.

Query: State whether the measured inhibition at 40 µg/mL reaches 50%, counting equality as reaching it, for Cc1ccc(/C=C/c2nc3ccccc3c(=O)n2-c2nnc(-c3ccc(Cl)cc3)s2)cc1
Result: NOT MET

Query: State whether the measured inhibition at 40 µg/mL reaches 50%, counting equality as reaching it, for COc1ccc(-c2nnc(-n3c(/C=C/c4ccc(C)cc4)nc4ccccc4c3=O)s2)cc1
Result: NOT MET

Query: State whether the measured inhibition at 40 µg/mL reaches 50%, counting equality as reaching it, for COc1ccc(/C=C/c2nc3ccccc3c(=O)n2-c2nnc(-c3ccccc3)s2)cc1
Result: NOT MET

Query: State whether the measured inhibition at 40 µg/mL reaches 50%, counting equality as reaching it, for COc1ccc(/C=C/c2nc3ccccc3c(=O)n2-c2nnc(-c3ccc(Cl)cc3)s2)cc1
Result: NOT MET

Query: State whether the measured inhibition at 40 µg/mL reaches 50%, counting equality as reaching it, for COc1ccc(/C=C/c2nc3ccccc3c(=O)n2-c2nnc(-c3ccc(OC)cc3)s2)cc1
Result: NOT MET

Query: State whether the measured inhibition at 40 µg/mL reaches 50%, counting equality as reaching it, for COc1ccc(-c2nnc(-n3c(/C=C/c4ccccc4)nc4ccccc4c3=O)s2)cc1
Result: NOT MET

Query: State whether the measured inhibition at 40 µg/mL reaches 50%, counting equality as reaching it, for Cc1ccc(/C=C/c2nc3ccccc3c(=O)n2-c2nnc(-c3ccc(C)cc3)s2)cc1
Result: NOT MET

Query: State whether the measured inhibition at 40 µg/mL reaches 50%, counting equality as reaching it, for Cc1ccc(/C=C/c2nc3ccccc3c(=O)n2-c2nnc(/C=C/c3ccccc3)s2)cc1
Result: MET

Query: State whether the measured inhibition at 40 µg/mL reaches 50%, counting equality as reaching it, for O=c1c2ccccc2nc(/C=C/c2ccccc2)n1-c1nnc(-c2ccc(Cl)cc2)s1
Result: MET
